These data points were gathered from patent US11685732B2.

# studySystem: KAT-6A (Homo sapiens (Human), UniProt Q92794)
# Sequence (Q92794 other isoform, or with tags, fused parts or gaps): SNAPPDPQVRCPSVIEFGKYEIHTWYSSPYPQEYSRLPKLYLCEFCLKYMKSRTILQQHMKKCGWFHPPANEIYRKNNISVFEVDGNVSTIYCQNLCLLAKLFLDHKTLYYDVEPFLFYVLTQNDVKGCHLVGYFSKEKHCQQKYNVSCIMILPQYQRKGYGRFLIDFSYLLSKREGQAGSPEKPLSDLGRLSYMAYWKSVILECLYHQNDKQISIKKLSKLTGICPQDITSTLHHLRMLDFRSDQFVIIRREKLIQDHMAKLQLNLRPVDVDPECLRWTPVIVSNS
# assayDetails: KAT-6A biochemical inhibition assay (SAMDI mass spectrometry)
readoutName: IC50

>>> reading("Cn1cnc(-c2cc(F)c(F)c(C(=O)NNS(=O)(=O)C3CCOCC3)c2)c1")
"10 to 50 µM"
>>> reading("Cn1cnc(-c2cc(Cl)c(F)c(C(=O)NNS(=O)(=O)c3cnn(C)c3)c2)c1")
"10 to 50 µM"
>>> reading("CC1CCN(C(=O)OC(C)(C)C)CC1CS(=O)(=O)NNC(=O)c1cc(-c2cn(C)cn2)cc(Cl)c1F (stereo not drawn)")
"10 to 50 µM"
>>> reading("Cc1cc(-c2cn(CCO)cn2)cc(C(=O)NNS(=O)(=O)C2CCOCC2)c1F")
"50 to 100 µM"
>>> reading("Cn1cnc(-c2cc(Cl)c(F)c(C(=O)NNS(=O)(=O)CC3CNCCN3)c2)c1 (stereo not drawn)")
"> 100 µM"
>>> reading("Cn1cnc(-c2cc(Cl)c(F)c(C(=O)NNC3CCS(=O)(=O)C3)c2)c1 (stereo not drawn)")
"10 to 50 µM"
>>> reading("Cn1cnc(-c2cc(Cl)c(F)c(C(=O)NNS(=O)(=O)CC3CN(C(=O)N4CCC4)C3)c2)c1")
"< 10 µM"
>>> reading("Cn1cnc(-c2cc(Cl)c(F)c(C(=O)NNS(=O)(=O)CC3CN(C(N)=O)C3)c2)c1")
"10 to 50 µM"
>>> reading("COc1ccc(CN(C)C(=O)N2CCCC(CS(=O)(=O)NNC(=O)c3cc(-c4cn(C)cn4)cc(Cl)c3F)C2)cc1 (stereo not drawn)")
"< 10 µM"
>>> reading("CCS(=O)(=O)NNC(=O)c1cc(-c2cn(C)cn2)cc(Cl)c1F")
"50 to 100 µM"
>>> reading("Cn1cnc(-c2cc(Cl)c(F)c(C(=O)NNS(=O)(=O)C[C@H]3CC[C@@H](NC(N)=O)CC3)c2)c1")
"< 10 µM"
>>> reading("Cn1cnc(-c2cc(Cl)c(F)c(C(=O)NNS(=O)(=O)CC3CCC(N)C3)c2)c1 (stereo not drawn)")
"10 to 50 µM"
>>> reading("CNC(=S)N1CC[C@H](CS(=O)(=O)NNC(=O)c2cc(-c3cn(C)cn3)cc(Cl)c2F)C1")
"< 10 µM"
>>> reading("Cn1cnc(-c2cc(Cl)c(F)c(C(=O)NNS(=O)(=O)C[C@@H]3CCNC3)c2)c1")
"10 to 50 µM"
>>> reading("O=C(NNS(=O)(=O)CC1CCOCC1)c1cc(-n2cncn2)cc(Cl)c1F")
"10 to 50 µM"
>>> reading("Cn1cnc(-c2cc(Cl)c(F)c(C(=O)NNS(=O)(=O)Cc3ccccc3)c2)c1")
"< 10 µM"
>>> reading("Cn1cnc(-c2cc(Cl)c(F)c(C(=O)NNS(=O)(=O)C[C@H]3CC[C@H](NC(=O)Cc4cccnc4)CC3)c2)c1")
"< 10 µM"
>>> reading("Cc1cc(-c2cn(C)cn2)cc(C(=O)NNS(=O)(=O)CC2CCCN(C(=O)OC(C)(C)C)C2)c1F (stereo not drawn)")
"< 10 µM"
>>> reading("COCCOc1cccc(S(=O)(=O)NNC(=O)c2cc(-c3cn(C)cn3)cc(Cl)c2F)c1")
"< 10 µM"
>>> reading("Cn1cnc(-c2cc(Cl)c(F)c(C(=O)NNS(=O)(=O)c3ccc(F)cc3F)c2)c1")
"< 10 µM"
>>> reading("CNC(=O)N[C@H]1C[C@@H](CS(=O)(=O)NNC(=O)c2cc(-c3cn(C)cn3)cc(Cl)c2F)C1")
"< 10 µM"
>>> reading("Cn1cnc(-c2cc(Cl)c(F)c(C(=O)NNS(=O)(=O)CC3CCCC3)c2)c1")
"< 10 µM"
>>> reading("Cn1cnc(-c2cc(Cl)c(F)c(C(=O)NNS(=O)(=O)C[C@H]3CC[C@H](NC(=O)Cc4ccccc4)CC3)c2)c1")
"< 10 µM"
>>> reading("O=C(NNS(=O)(=O)CC1CCCCC1)c1cc(-c2ccccn2)cc(Cl)c1F")
"< 10 µM"
>>> reading("Cn1cnc(-c2cc(Cl)c(F)c(C(=O)NNS(=O)(=O)C[C@H]3C[C@@H](N)C3)c2)c1")
"10 to 50 µM"
>>> reading("COCC(=O)N1CCCC(CS(=O)(=O)NNC(=O)c2cc(-c3cn(C)cn3)cc(C)c2F)C1 (stereo not drawn)")
"< 10 µM"
>>> reading("Cn1cnc(-c2cc(Cl)c(F)c(C(=O)NNS(=O)(=O)CC3CCCc4ccccc43)c2)c1 (stereo not drawn)")
"< 10 µM"
>>> reading("Cn1cnc(-c2cc(Cl)c(F)c(C(=O)NNS(=O)(=O)CC3CCC(F)(F)CC3)c2)c1")
"< 10 µM"
>>> reading("COCCn1nc(-c2cc(Cl)c(F)c(C(=O)NNS(=O)(=O)CC3CCCCC3)c2)cc1C")
"10 to 50 µM"
>>> reading("CN(C)C(=O)N1CC(CS(=O)(=O)NNC(=O)c2cc(-c3cn(C)cn3)cc(Cl)c2F)C1")
"< 10 µM"
